# ASSAY_SYSTEM: GST-FLAG-MSI1 (human, UniProt O43347 1-362)
# Sequence (O43347 whole entry): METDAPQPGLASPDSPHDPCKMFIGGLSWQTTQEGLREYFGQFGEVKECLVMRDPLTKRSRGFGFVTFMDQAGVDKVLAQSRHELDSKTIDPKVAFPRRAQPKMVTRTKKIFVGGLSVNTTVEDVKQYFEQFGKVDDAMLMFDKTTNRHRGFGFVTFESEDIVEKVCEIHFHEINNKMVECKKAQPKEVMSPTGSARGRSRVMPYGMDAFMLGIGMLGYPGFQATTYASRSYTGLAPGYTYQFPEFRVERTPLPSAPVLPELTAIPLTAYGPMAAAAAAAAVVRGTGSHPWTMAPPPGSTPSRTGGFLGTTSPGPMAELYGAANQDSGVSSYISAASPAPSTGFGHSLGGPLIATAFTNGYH
# METHOD: competition
pIC50: −log10 of the molar value.

{"BINDER": "GUAGUAGU (ssRNA) [MSI Oligo #5 (unlabeled MSI FP oligo)]", "pIC50": 5.25}
